Test system: Huh7 cells
ASSAY INFO: EZ-Cytox Enhanced cell viability assay, Huh7
Assay type: cell-based
EXPERIMENTAL SETUP: 48 h exposure, read-out: IC50, cell cytotoxicity / proliferation inhibition
MEASURED ENDPOINT: IC50 (nM)
Field format: number, assumed nM, no unit text.

[Q] Lookup: IC50 / Huh7 cells / `COc1ccc(C[C@H]2NC[C@H](O)[C@H]2OC(C)=O)cc1`
[A] 118

###

System: HepG2 cells
ASSAY INFO: EZ-Cytox Enhanced cell viability assay, HepG2
Assay type: cell-based
EXPERIMENTAL SETUP: 48 h exposure, read-out: IC50, cell cytotoxicity / proliferation inhibition
MEASURED ENDPOINT: pIC50
Quick note: pIC50 means taking -log10 of the concentration in moles per liter.

[Q] Lookup: pIC50 / HepG2 cells / `COc1ccc(C[C@H]2NC[C@H](O)[C@H]2OC(C)=O)cc1`
[A] 7.09
